Target: T1, human TL1A (Fitzgerald #30R-AT070) (human, UniProt O95150 72-251, limits assumed)
T1 construct: Coated on the ELISA plate at 1 ug/mL; also called TNFSF15
T1 sequence (looked up): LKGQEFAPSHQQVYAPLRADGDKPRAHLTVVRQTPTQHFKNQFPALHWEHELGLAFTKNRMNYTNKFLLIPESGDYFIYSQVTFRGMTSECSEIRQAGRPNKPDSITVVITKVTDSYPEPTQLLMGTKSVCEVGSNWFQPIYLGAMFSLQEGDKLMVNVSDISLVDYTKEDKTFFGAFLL
Experiment: ELISA titration, coated human TL1A, culture supernatant
quantity: pKd
Please keep in mind that pKd is minus log10 of the molar concentration; only the number is needed.

Sample answers from the record:
>>> data_value("A109 (antibody, human IgG1, V domains shown, human IgG1/kappa (pFuse vectors), culture supernatant) VH: QVQLVQSGAEVKKPGASVKVSCKASGFDIQDTYMHWVRQAPGQGLEWMGRIEPASGHIKYDPKFQGRVTMTRDTSTSTAYMELSSLRSEDTAVYYCARSGGLPDWWGQGTTVTVSS VL: EIVLTQSPGTLSLSPGERATLSCRASSSVSYMYWYQQKPGQAPRPWIYATSNLASGIPDRFSGSGSGTDFTLTISRLEPEDFAVYYCQQWEGNPRTFGGGTKLEIK")
10.30
>>> data_value("A104 (antibody, human IgG1, V domains shown, human IgG1/kappa (pFuse vectors), culture supernatant) VH: QVQLVQSGAEVKKPGASVKVSCKASGFDIQDTYMHWVRQAPGQGLEWIGRIDPASGHTKYDPKFQVRATITTDTSTSTAYLELSSLRSEDTAVYYCARSGGLPDVWGQGTTVTVSS VL: EIVLTQSPGTLSLSPGERATLSCRASSSVSYMYWYQQKPGQAPRLLIYATSNLASGIPDRFSGSGSGTDFTLTISRLEPEDFAVYYCQQWKGNPRTFGGGTKLEIK")
9.97

// switching to the query binder
### Prompt // returns reported pKd for input A149 (antibody, human IgG1, V domains shown, human IgG1/kappa (pFuse vectors), culture supernatant) VH: QVQLVQSGAEVKKPGASVKVSCKASGFDIQDTYMHWVRQAPGQGLEWMGRIEPASGHIKYDPKFQVRATMTRDTSTSTVYMELSSLRSEDTAVYYCARSGGLPDWWGQGTTVTVSS VL: EIVLTQSPGTLSLSPGERATLSCRASSSVSYMYWYQQKPGQAPRPLIYATSNLASGIPDRFSGSGSGTDFTLTISRLEPEDFAVYYCQQWEGNPRTFGGGTKLEIK
### Response 10.32
